target: hNPSR-107I (Homo sapiens, UniProt Q6W5P4, N107I); test: cAMP accumulation assay; format: cell-based
Sequence (Q6W5P4 whole entry N107I): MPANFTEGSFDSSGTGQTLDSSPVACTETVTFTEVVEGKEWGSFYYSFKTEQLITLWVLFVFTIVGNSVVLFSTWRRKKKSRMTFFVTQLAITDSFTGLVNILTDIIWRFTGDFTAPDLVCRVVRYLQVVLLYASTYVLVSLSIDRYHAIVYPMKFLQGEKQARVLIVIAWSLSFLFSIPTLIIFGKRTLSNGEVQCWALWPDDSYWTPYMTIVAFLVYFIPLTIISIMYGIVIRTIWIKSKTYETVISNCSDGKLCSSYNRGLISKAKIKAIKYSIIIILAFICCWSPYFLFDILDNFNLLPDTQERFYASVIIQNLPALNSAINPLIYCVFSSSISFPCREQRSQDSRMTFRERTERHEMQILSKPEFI
Where no end group is shown, it is not given here.
Measurement Type: pEC50
Just so you know, pEC50 here is -log10 of the concentration in molar units; reply with that number alone.

// SFRNGV-NH2 [compound 1, SerPheArgAsnGlyVal-NH2] : pEC50 value = 8.71
